Data provenance: PubChem BioAssay AID2013

target: G-protein coupled receptor 55 (Homo sapiens) (UniProt Q9Y2T6); assay: GPR55 antagonists blocking LPI-driven arrestin recruitment, primary screen, imaging, U2OS, beta-arrestin-GFP, LPI agonist (AID 2013); settings: U2OS GPR55 beta-arrestin-GFP translocation imaging, LPI antagonism; at 10 µM; hits give high values;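 also: U2OS cells stably carrying GPR55 and arrestin-GFP stimulated by 5 µM LPI near EC80; imaged beta-arrestin-GFP aggregate spots per cell after agonist stimulation; plate controls were LPI-stimulated DMSO wells for no effect and DMSO wells without LPI for full effect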
Sequence (Q9Y2T6 whole entry, looked up): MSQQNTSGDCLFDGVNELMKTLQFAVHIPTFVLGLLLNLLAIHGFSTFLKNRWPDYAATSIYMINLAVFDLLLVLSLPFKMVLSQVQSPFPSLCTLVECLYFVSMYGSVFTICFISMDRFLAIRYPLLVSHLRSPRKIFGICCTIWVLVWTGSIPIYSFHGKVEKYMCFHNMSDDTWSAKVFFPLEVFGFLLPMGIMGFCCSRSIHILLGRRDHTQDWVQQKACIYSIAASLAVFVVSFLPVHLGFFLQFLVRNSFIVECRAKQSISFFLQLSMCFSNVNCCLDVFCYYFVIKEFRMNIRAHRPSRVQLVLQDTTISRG
Screen size: about 290,000 compounds; about 370 (0.13%) were called active. Shown is part of a subset that was picked to be rich in actives. Entries with a potency or affinity are not part of this list.
assayEndpoint: inhibition (%)
Numbers only, in %.

For each listed entry, give its inhibition.
1. Cn1c(-c2sccc2OCc2ccccc2)n[nH]c1=S
2. COC(=O)c1c(NC(NC(=O)C(C)C)C(Cl)(Cl)Cl)sc2c1CCC2 (stereo not drawn)
3. Cc1cccc(OCC(=O)N2CCOCC2)c1
4. N#CC(C#N)=C1C=C2C=C(N3CCCCCC3)CCC2CC1 (stereo not drawn)
5. CSc1nnc(-c2sccc2OCc2ccc(C)cc2)n1C

1: 6.8; 2: -7.5; 3: 15.3; 4: 23.3; 5: 28.1

Each compound below has a recorded value; state its inhibition.
1. COc1ccc(-c2cn[nH]c2-c2ccc(OCC(=O)NN)cc2O)cc1OC
2. COc1ccc(C(=S)N2CCOCC2)cc1OC(=O)c1ccc([N+](=O)[O-])cc1[N+](=O)[O-]
3. CC(=O)NC1=NC(=O)/C(=C/c2cn(C(C)=O)nc2-c2ccccc2)S1

1. -2.6
2. 6.8
3. 100
